Data origin: ChEMBL document CHEMBL1138297

Test system: Yersinia pseudotuberculosis
procedure_text: Effect on T3S in Yersinia pseudotuberculosis 3 pIB29 assessed as inhibition of light emission at 5 uM by luciferase reporter gene assay
inhibition below 90% gives false; inhibition at or above it gives true.

>>> qualitative_label("CC(=O)Oc1c(I)cc(I)cc1C(=O)Nc1ccc(Cl)cc1")
"false"

Ask: Kindly determine if inhibition recorded for `CC(=O)Oc1c(Cl)cccc1C(=O)Nc1ccc(Br)cc1` is above or exactly 90%.
Reply: false

Ask: # check: inhibition of `O=C(Nc1cc(Cl)ccc1F)c1cc(I)cc(I)c1O` is greater than or equal to 90%
Reply: false

Ask: inhibition >= 90% for `O=C(Nc1ccc(SC(F)(F)F)cc1)c1c(O)c(Cl)cc(Cl)c1Cl` ?
Reply: false

Ask: Kindly determine if inhibition recorded for `CC(=O)Oc1ccc(I)cc1C(=O)Nc1ccc(Cl)cc1` is above or exactly 90%.
Reply: true

----------
# Lookup of reported inhibition keyed by entry
Tested on: Yersinia pseudotuberculosis
procedure_text: Effect on T3S in Yersinia pseudotuberculosis 3 pIB29 assessed as inhibition of light emission at 5 uM by luciferase reporter gene assay
Write the answer as a number in %, unit excluded.

Ask: Give Yersinia pseudotuberculosis inhibition for `O=C(Nc1ccc(Br)cc1)c1cc(I)ccc1O`
Reply: 68

Ask: Param readout= inhibition; system= Yersinia pseudotuberculosis; entry= `CC(=O)Oc1c(I)cc(I)cc1C(=O)Nc1ccc(F)cc1` ; returns value.
Reply: 31

Ask: Provide value of inhibition for this record tested with Yersinia pseudotuberculosis: `CC(=O)Oc1ccc(I)cc1C(=O)Nc1ccc(SC(F)(F)F)cc1`
Reply: 56

Ask: Tell me reported inhibition for `O=C(Nc1ccc(Br)cc1)c1cc(I)cc(I)c1O` , tested with Yersinia pseudotuberculosis.
Reply: 94

Ask: GET /values?readout=inhibition&system=Yersinia pseudotuberculosis&item= `CC(=O)Oc1c(I)cc(I)cc1C(=O)Nc1ccc(SC(F)(F)F)cc1`
Reply: 60

Ask: API: value(readout= inhibition, system= Yersinia pseudotuberculosis, query= `CC(=O)Oc1c(I)cc(I)cc1C(=O)Nc1ccc(Br)cc1` )
Reply: 38

Ask: Value wanted: inhibition (Yersinia pseudotuberculosis) of entry `O=C(Nc1ccc(F)cc1)c1cc(I)cc(I)c1O`
Reply: 26

Ask: # get_value(readout= inhibition, system= Yersinia pseudotuberculosis) for `CC(=O)Oc1c(Cl)cccc1C(=O)Nc1ccc(SC(F)(F)F)cc1`
Reply: 34

Ask: Under Yersinia pseudotuberculosis: inhibition value of `O=C(Nc1ccc(Cl)cc1)c1cc(I)ccc1O` ?
Reply: 91

Ask: Record lookup: for Yersinia pseudotuberculosis, what inhibition belongs to `O=C(Nc1ccc(SC(F)(F)F)cc1)c1cc(I)cc(I)c1O` ?
Reply: 75

Ask: Record `CC(=O)Oc1c(Cl)cc(Cl)c(Cl)c1C(=O)Nc1ccc(SC(F)(F)F)cc1` : what is its inhibition with Yersinia pseudotuberculosis?
Reply: 47

----------
Tested on: Yersinia pseudotuberculosis
procedure_text: Effect on T3S in Yersinia pseudotuberculosis 3 pIB29 assessed as inhibition of light emission at 10 uM by luciferase reporter gene assay
Could you label it y if measured inhibition is 40% or higher, and n otherwise?

Worked examples, 3 compounds total:
>>> qualitative_label("CC(=O)Oc1c(Cl)cc(Cl)c(Cl)c1C(=O)Nc1cc(C)cc(C)c1")
"n"
>>> qualitative_label("O=C(Nc1ccc(SC(F)(F)F)cc1)c1cc(I)cc(I)c1O")
"y"
>>> qualitative_label("O=C(Nc1ccc(SC(F)(F)F)cc1)c1c(O)c(Cl)cc(Cl)c1Cl")
"y"

Ask: Record `CC(=O)Oc1c(I)cc(I)cc1C(=O)Nc1cc(Cl)ccc1F` ; criterion: inhibition no lower than 40%. Met?
Reply: n

Ask: Test whether the compound `CC(=O)Oc1cc(C)ccc1C(=O)Nc1ccccc1F` records inhibition of 40% or higher.
Reply: n

Ask: Say whether `O=C(Nc1ccc(F)cc1)c1c(O)c(Cl)cc(Cl)c1Cl` shows inhibition of 40% or more.
Reply: n

Ask: Determine whether measured inhibition meets or exceeds 40% for `CC(=O)Oc1ccc(I)cc1C(=O)Nc1ccc(Cl)cc1`
Reply: y

Ask: Exam item: decide whether the reported inhibition for `CC(=O)Oc1c(I)cc(I)cc1C(=O)Nc1ccc(F)cc1` is at least 40%.
Reply: y

Ask: Check this compound for inhibition at or above 40%: `CCCCCCCc1ccc(NC(=O)c2cc(I)cc(I)c2OC(C)=O)cc1`
Reply: n

Ask: Is it the case that `O=C(Nc1ccc(Br)cc1)c1cc(I)cc(I)c1O` has inhibition reaching or exceeding 40%?
Reply: y

Ask: Does inhibition meet or surpass 40% for `CC(C)(C)c1ccc(NC(=O)c2cc(I)cc(I)c2O)cc1` ?
Reply: n

----------
Test system: Yersinia pseudotuberculosis
procedure_text: Effect on T3S in Yersinia pseudotuberculosis 3 pIB29 assessed as inhibition of light emission at 0.5 uM by luciferase reporter gene assay
List of inhibition values.
Please give a number only; it is taken to be in %.

In the examples that follow, each entry is paired with its recorded inhibition.
>>> numeric_readout("O=C(Nc1ccc(Br)cc1)c1cccc(Cl)c1O")
5
>>> numeric_readout("CC(=O)Oc1c(Cl)cccc1C(=O)Nc1ccc(SC(F)(F)F)cc1")
-1
>>> numeric_readout("CC(=O)Oc1c(I)cc(I)cc1C(=O)Nc1ccc(SC(F)(F)F)cc1")
11
>>> numeric_readout("CC(=O)Oc1c(Cl)cc(Cl)c(Cl)c1C(=O)Nc1ccc(SC(F)(F)F)cc1")
5
>>> numeric_readout("O=C(Nc1ccc(Cl)cc1)c1cc(I)ccc1O")
55
>>> numeric_readout("O=C(Nc1ccc(SC(F)(F)F)cc1)c1cc(I)cc(I)c1O")
19
>>> numeric_readout("CC(=O)Oc1ccc(I)cc1C(=O)Nc1ccc(Cl)cc1")
58
>>> numeric_readout("CC(=O)Oc1ccc(I)cc1C(=O)Nc1ccc(SC(F)(F)F)cc1")
17
>>> numeric_readout("CC(=O)Oc1c(I)cc(I)cc1C(=O)Nc1ccc(Cl)cc1")
3
>>> numeric_readout("CC(=O)Oc1c(I)cc(I)cc1C(=O)Nc1cc(Cl)ccc1F")
6

Ask: Endpoint output: inhibition of `O=C(Nc1ccc(F)cc1)c1cc(I)cc(I)c1O` . Value?
Reply: 5

Ask: May I ask what inhibition has been recorded for `O=C(Nc1ccc(Cl)cc1)c1cc(I)cc(I)c1O` ?
Reply: 15

Ask: Data request, read-out inhibition, for `O=C(Nc1cc(Cl)ccc1F)c1cc(I)cc(I)c1O`
Reply: 7

Ask: State the recorded inhibition for this entry: `O=C(Nc1ccc(Br)cc1)c1cc(I)cc(I)c1O`
Reply: 36

----------
Overview of recorded inhibition for various compounds
System: Yersinia pseudotuberculosis
procedure_text: Effect on T3S in Yersinia pseudotuberculosis 3 pIB29 assessed as inhibition of light emission at 100 uM by luciferase reporter gene assay
Entry rule: numbers only, all in %.

Answered examples (5):
>>> numeric_readout("Cc1ccc(C(=O)Nc2ccccc2F)c(O)c1")
34
>>> numeric_readout("CC(=O)Oc1c(C(=O)Nc2ccc(SC(F)(F)F)cc2)cc2cc(Br)ccc2c1Br")
-3
>>> numeric_readout("CC(=O)Oc1c(Cl)cc(Cl)c(Cl)c1C(=O)Nc1ccc(SC(F)(F)F)cc1")
92
>>> numeric_readout("O=C(Nc1ccc(Cl)cc1)c1cc(I)cc(I)c1O")
99
>>> numeric_readout("CC(=O)Oc1c(Cl)cccc1C(=O)Nc1ccc(SC(F)(F)F)cc1")
100

Ask: # inhibition lookup, item `O=C(Nc1ccccc1)c1cc(I)cc(I)c1O`
Reply: 99

Ask: Which inhibition is listed for `CCCCCCCc1ccc(NC(=O)c2cc(I)cc(I)c2OC(C)=O)cc1` ?
Reply: 5

Ask: # inhibition lookup, item `CC(=O)Oc1c(I)cc(I)cc1C(=O)Nc1ccc(Br)cc1`
Reply: 95

Ask: Consider the compound shown here: `CC(=O)Oc1c(I)cc(I)cc1C(=O)Nc1ccccc1` What is its recorded inhibition?
Reply: 94

Ask: Any idea what inhibition was measured for `O=C(Nc1ccc(SC(F)(F)F)cc1)c1c(O)c(Cl)cc(Cl)c1Cl` ?
Reply: 100

----------
Tested on: Yersinia pseudotuberculosis
procedure_text: Effect on T3S in Yersinia pseudotuberculosis 3 pIB29 assessed as inhibition of light emission at 50 uM by luciferase reporter gene assay
Documented inhibition across a set of molecules
Give your result in % as a bare value.

// known answers, use as guide
>>> numeric_readout("COc1cc(Cl)c(C)cc1NC(=O)c1cc(C)ccc1O")
16
>>> numeric_readout("CC(=O)Oc1c(I)cc(I)cc1C(=O)Nc1ccccc1")
75
>>> numeric_readout("CC(C)(C)c1ccc(NC(=O)c2cc(F)ccc2O)cc1")
13
>>> numeric_readout("CC(=O)Oc1c(I)cc(I)cc1C(=O)Nc1cc(Cl)ccc1F")
89
>>> numeric_readout("CC(=O)Oc1c(I)cc(I)cc1C(=O)Nc1ccc(SC(F)(F)F)cc1")
71

Ask: Dear colleague, I am looking for the recorded inhibition of the following molecule: `O=C(Nc1ccccc1)c1c(O)c(Cl)cc(Cl)c1Cl`
Reply: 23

Ask: Could you tell me which inhibition is on file for `O=C(Nc1ccc(F)cc1)c1c(O)c(Cl)cc(Cl)c1Cl` ?
Reply: 32

Ask: Form field: reported inhibition of `COc1cc(Cl)c(C)cc1NC(=O)c1cc(I)cc(I)c1OC(C)=O`
Reply: 35

Ask: # lookup: inhibition of `CC(=O)Oc1c(Cl)cc(Cl)c(Cl)c1C(=O)Nc1ccc(C(C)(C)C)cc1`
Reply: 19

Ask: I am curious: what inhibition value has been reported for `CC(=O)Oc1ccc(I)cc1C(=O)Nc1ccc(Br)cc1` ?
Reply: 100

Ask: Please look up its inhibition: `COc1cc(Cl)c(C)cc1NC(=O)c1cc(I)cc(I)c1O`
Reply: 57

Ask: Entry `CC(=O)Oc1ccc(Cl)cc1C(=O)Nc1ccc(Cl)c(C)c1` : reported inhibition = ?
Reply: 100

Ask: I would be grateful if you could share the reported inhibition for `CC(=O)Oc1ccccc1C(=O)Nc1ccc(Cl)cc1` .
Reply: 92

Ask: State the recorded inhibition for this entry: `Cc1ccc(C(=O)Nc2ccccc2F)c(O)c1`
Reply: 35

Ask: Which measured inhibition value corresponds to `COc1cc(Cl)c(C)cc1NC(=O)c1cccc(C(C)C)c1O` ?
Reply: 19

Ask: Quick one: inhibition for `O=C(Nc1ccc(Br)cc1)c1cccc(Cl)c1O` ?
Reply: 96

Ask: Could you tell me which inhibition is on file for `CC(=O)Oc1ccc(F)cc1C(=O)Nc1ccc(C(C)(C)C)cc1` ?
Reply: 22

Ask: Please give the measured inhibition for this molecule: `O=C(Nc1ccc(SC(F)(F)F)cc1)c1cccc(Cl)c1O`
Reply: 99

Ask: Query: inhibition; subject: `CC(=O)Oc1c(I)cc(I)cc1C(=O)Nc1ccc(F)cc1`
Reply: 86

Ask: Look up inhibition for this molecule: `CC(=O)Oc1c(I)cc(I)cc1C(=O)Nc1ccc(Cl)cc1`
Reply: 99

Ask: Suppose we examine the molecule `CC(=O)Oc1ccc(I)cc1C(=O)Nc1ccc(SC(F)(F)F)cc1` ; what inhibition value has been reported?
Reply: 99

Ask: What does the record list as inhibition for `O=C(Nc1cc(Cl)ccc1F)c1cc(I)cc(I)c1O` ?
Reply: 100

Ask: Requested field: inhibition. Item: `CC(=O)Oc1c(Cl)cc(Cl)c(Cl)c1C(=O)Nc1ccc(SC(F)(F)F)cc1`
Reply: 89

Ask: Given `O=C(Nc1ccc(Cl)cc1)c1cc(I)ccc1O` , state its recorded inhibition.
Reply: 80
